Molecular target: PI3Kgamma (Homo sapiens)
Construct: His (N); host or cells: SF9 insect cells (baculovirus)
Sequence (P48736 whole entry): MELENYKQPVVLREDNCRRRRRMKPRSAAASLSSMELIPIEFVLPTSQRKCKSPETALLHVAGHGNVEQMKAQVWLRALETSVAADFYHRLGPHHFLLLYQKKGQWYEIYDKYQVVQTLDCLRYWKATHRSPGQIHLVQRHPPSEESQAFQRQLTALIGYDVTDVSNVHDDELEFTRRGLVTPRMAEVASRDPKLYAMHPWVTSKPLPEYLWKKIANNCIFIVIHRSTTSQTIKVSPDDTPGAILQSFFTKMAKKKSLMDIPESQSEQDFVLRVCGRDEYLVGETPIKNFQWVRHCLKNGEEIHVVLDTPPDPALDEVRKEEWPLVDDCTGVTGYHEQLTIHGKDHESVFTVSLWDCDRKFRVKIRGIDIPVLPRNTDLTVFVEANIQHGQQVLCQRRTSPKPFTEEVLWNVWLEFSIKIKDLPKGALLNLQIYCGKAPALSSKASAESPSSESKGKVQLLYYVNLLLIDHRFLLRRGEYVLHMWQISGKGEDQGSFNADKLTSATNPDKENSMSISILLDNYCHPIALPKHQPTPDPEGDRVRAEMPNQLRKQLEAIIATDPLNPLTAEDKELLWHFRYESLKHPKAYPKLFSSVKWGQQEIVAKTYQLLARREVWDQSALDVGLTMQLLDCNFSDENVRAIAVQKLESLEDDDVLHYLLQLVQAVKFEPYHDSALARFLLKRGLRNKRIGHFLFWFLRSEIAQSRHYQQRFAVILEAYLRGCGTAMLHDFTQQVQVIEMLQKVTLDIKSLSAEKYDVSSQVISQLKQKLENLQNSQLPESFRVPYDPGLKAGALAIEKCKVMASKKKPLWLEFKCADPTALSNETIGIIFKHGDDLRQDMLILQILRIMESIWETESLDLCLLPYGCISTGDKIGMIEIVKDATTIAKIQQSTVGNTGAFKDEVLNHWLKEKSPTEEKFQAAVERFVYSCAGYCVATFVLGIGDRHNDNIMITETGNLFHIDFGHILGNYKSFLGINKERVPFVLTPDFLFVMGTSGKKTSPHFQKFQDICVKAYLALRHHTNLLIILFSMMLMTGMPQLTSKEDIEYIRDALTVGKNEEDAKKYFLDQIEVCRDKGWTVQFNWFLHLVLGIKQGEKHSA
Assay: Human PI3K gamma enzyme assay (HTRF, as for PI3K alpha)
Type: biochemical
Conditions: read-out: PI3Kgamma % inh

- Molecule: "O=C1CC(c2ccc3ccccc3c2)c2cc(N3CCOCC3)sc21 (stereo not drawn)"
  inhibition at 1.11 µM / %: 60.3
- Molecule: "O=C1CC(c2ccc(Cl)cc2)c2cc(-c3ccncc3)sc21 (stereo not drawn)"
  inhibition at 1.11 µM / %: 10.9
- Molecule: "N#Cc1c(N2CCOCC2)sc2c1C(c1ccc(Cl)cc1)CNC2=O (stereo not drawn)"
  inhibition at 1.11 µM / %: 29.1
- Molecule: "O=C1NCCC(c2ccc(Cl)c(Cl)c2)c2cc(N3CCOCC3)sc21 (stereo not drawn)"
  inhibition at 1.11 µM / %: 53.4
- Molecule: "O=S1(=O)NC=C(c2ccc(Cl)cc2)c2cc(-c3ccncc3)sc21"
  inhibition at 1.11 µM / %: 12.3
- Molecule: "CC1=CC(=O)Nc2sc(-c3ccncc3)cc2C1(C)c1ccc(Cl)cc1 (stereo not drawn)"
  inhibition at 1.11 µM / %: 8.6
- Molecule: "CC1(C)CC(=O)c2sc(-c3ccncc3)cc2C1c1ccc(Cl)cc1 (stereo not drawn)"
  inhibition at 1.11 µM / %: 6.7
- Molecule: "O=C1N[C@@H](CO)[C@H](c2ccc(Cl)cc2)c2cc(N3CCOCC3)sc21"
  inhibition at 1.11 µM / %: 30.7
- Molecule: "O=C1NCCC(c2ccc3ccccc3c2)c2cc(N3CCOCC3)sc21 (stereo not drawn)"
  inhibition at 1.11 µM / %: 43.8

Hey, just so you know, these numbers are from patent US8765746B2.
